test system: SNB-75; assay: NCI tumour cell line growth inhibition, 48 h
The source made the active and inactive calls. Rule as the data show it: active = GI50 up to about 1.1 µM and inactive = higher.
Entries and their GI50
Measurement Label: GI50

In [3]: df
Out[3]:
                                    compound  measurement_label  observed_measurement
 0     O=C(CCCn1ccnc1[N+](=O)[O-])NCCn1ccnc1               GI50   > 100 µM (inactive)
 1    C=CCc1cccc2cc(C(=O)Nc3ccccc3)c(=N)oc12               GI50    52.4 µM (inactive)
 2     C=CCN1C(=O)/C(=C/c2cccs2)N=C1SC/C=C/C               GI50    17.3 µM (inactive)
 3  CC1(C)CC(=O)c2c(nc3c(ccc4ccccc43)c2-c2ccc(NC(=O)CCCCC(=O)Nc3ccc(-c4c5c(nc6c4ccc4ccccc46)CC(C)(C)CC5=O)cc3)cc2)C1               GI50    16.3 µM (inactive)
 4  Oc1c(OCc2nnc(CCCCCCCCc3nnc(COc4ccc5ccccc5c4O)n3Nc3ccccc3)n2Nc2ccccc2)ccc2ccccc12               GI50    17.5 µM (inactive)
 5  Cc1c2cc(Cl)ccc2n2c(=O)c3ccccc3[nH]c(=O)c12               GI50    59.6 µM (inactive)
 6  CCCC1(NC(=O)C(F)(F)F)CC(OC)OC2COC(c3ccccc3)OC21 (stereo not drawn)               GI50   > 100 µM (inactive)
 7  CC(=O)OCC(OC(C)=O)C(OC(C)=O)C(OC(C)=O)C(=O)CNn1c(-c2ccc(C)cc2)nc2ccccc2c1=O (stereo not drawn)               GI50    53.1 µM (inactive)
 8  N#CCC(=O)N/N=C(/C(=O)Nc1ccccc1)C1C(=O)N(c2ccccc2)N=C1N (stereo not drawn)               GI50   > 100 µM (inactive)
 9  CSC1C=C(C(C)C)CCC1(C)SC (stereo not drawn)               GI50    17.6 µM (inactive)
10  Cc1ccc2c(c1)-c1nc(N)c(C#N)c(-c3ccc(Cl)cc3)c1CCS2(=O)=O               GI50      49 µM (inactive)
11  O=C1CC2CCN(C(=O)c3ccccc3)CC2CCN1.O=C1CCC2CC(C(=O)c3ccccc3)CCC2CN1 (stereo not drawn)               GI50   > 100 µM (inactive)
12  C[C@@H]1C[C@H]2[C@@H]3CCC4=CC(=O)C=C[C@]4(C)[C@@]3(Cl)[C@@H](Cl)C[C@]2(C)[C@@]1(O)C(=O)COP(=O)(O)O               GI50   > 100 µM (inactive)
13  CC1(C)COC2C(N(Cc3ccccc3)Cc3ccccc3)C(=O)N21 (stereo not drawn)               GI50      20 µM (inactive)
14        O=C1C(=Cc2ccc(F)cc2)C(=O)c2ccccc21               GI50    24.9 µM (inactive)
15        Cc1nc2ccccc2c(=O)n1NC(=O)Cc1ccccc1               GI50      31 µM (inactive)
16  Cc1cc2occ(S(=O)(=O)NC(=O)Nc3ccc(Cl)cc3)c(=O)c2c(=O)o1               GI50   > 100 µM (inactive)
17    O=C(O/N=C1/CCCC/C1=C\c1ccccc1)c1ccccc1               GI50   > 100 µM (inactive)

Data origin, for the record: ChEMBL document CHEMBL1201862
